Data origin: patent US8765748B2

This section lists IC50 readings for UniProtKB P35968.
Sequence (P35968 20-1356): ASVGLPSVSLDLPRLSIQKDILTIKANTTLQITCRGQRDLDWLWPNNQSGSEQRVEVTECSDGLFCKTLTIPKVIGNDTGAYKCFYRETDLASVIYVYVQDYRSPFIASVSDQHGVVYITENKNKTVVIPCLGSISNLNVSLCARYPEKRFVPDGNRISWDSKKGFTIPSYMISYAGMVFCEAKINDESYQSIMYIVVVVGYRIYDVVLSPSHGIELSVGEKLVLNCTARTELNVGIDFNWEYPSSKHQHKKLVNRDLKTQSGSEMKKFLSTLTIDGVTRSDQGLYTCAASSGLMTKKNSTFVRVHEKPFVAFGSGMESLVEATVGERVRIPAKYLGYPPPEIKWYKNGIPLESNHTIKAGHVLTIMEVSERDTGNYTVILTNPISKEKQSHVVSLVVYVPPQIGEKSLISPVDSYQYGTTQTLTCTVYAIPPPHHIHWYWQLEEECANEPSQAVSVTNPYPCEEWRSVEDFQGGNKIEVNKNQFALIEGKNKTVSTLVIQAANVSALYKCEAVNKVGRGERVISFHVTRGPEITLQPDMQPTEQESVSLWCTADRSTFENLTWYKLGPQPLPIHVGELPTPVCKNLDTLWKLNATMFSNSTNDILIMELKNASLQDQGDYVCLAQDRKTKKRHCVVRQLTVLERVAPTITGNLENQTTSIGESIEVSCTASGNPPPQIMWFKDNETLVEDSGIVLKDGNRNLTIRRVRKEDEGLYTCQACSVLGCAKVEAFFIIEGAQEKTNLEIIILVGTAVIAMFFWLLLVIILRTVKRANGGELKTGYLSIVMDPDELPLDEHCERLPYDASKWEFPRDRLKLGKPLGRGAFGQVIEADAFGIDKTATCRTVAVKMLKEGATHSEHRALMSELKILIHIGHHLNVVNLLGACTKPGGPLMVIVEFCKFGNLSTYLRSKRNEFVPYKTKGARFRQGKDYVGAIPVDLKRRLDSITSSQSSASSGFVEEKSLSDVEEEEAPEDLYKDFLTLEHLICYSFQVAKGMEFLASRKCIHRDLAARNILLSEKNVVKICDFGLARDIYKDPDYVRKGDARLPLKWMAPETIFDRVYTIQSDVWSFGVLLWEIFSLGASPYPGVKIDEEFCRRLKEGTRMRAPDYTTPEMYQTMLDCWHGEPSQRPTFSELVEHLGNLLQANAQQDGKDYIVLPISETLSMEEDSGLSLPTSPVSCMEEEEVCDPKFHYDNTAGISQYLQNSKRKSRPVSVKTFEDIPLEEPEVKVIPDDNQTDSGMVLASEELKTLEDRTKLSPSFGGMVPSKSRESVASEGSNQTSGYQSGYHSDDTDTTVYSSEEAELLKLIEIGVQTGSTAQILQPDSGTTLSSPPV

# MOLECULE, IC50
records = [
    ("O=C1Nc2ccccc2/C1=C\\c1ccc2c(/C=C/c3ccncc3)n[nH]c2c1 [Example A57]", "< 5 µM"),
    ("COc1ccc2c(c1)C(=Cc1ccc3c(-c4ccc(N5CCN(C)CC5)nc4)n[nH]c3c1)C(=O)N2 (mixture of isomers) [Example A97]", "< 5 µM"),
    ("O=C1Nc2ccccc2C1=Cc1ccc2c(/C=C/c3ccccn3)n[nH]c2c1 (mixture of isomers) [Example A41]", "< 5 µM"),
]

----------
Tested on: A549 lung cancer cells
Reported values of GI50 for individual entries

# MOLECULE, GI50
records = [
    ("O=C1Nc2ccccc2/C1=C\\c1ccc2c(C#Cc3cccnc3)n[nH]c2c1", "> 50 µM"),
    ("O=C1Nc2ccccc2C1=Cc1ccc2c(/C=C/c3ccccn3)n[nH]c2c1 (mixture of isomers)", "5 to 20 µM"),
    ("CN1CCN(c2ccc(/C=C/c3n[nH]c4cc(C=C5C(=O)Nc6ccccc65)ccc34)cn2)CC1 (mixture of isomers)", "< 5 µM"),
    ("CN1CCN(c2ccc(-c3n[nH]c4cc(C=C5C(=O)Nc6ccccc65)ccc34)cn2)CC1 (mixture of isomers)", "< 5 µM"),
    ("CN(C)Cc1ccc(/C=C/c2n[nH]c3cc(C=C4C(=O)Nc5ccccc54)ccc23)cc1 (mixture of isomers) [Example A106, 2,2,2-trifluoroacetate]", "< 5 µM"),
    ("CC(C)c1ccc2c(c1)/C(=C\\c1ccc3c(/C=C/c4ccncc4)n[nH]c3c1)C(=O)N2 [Example A127, 2,2,2-trifluoroacetate]", "5 to 20 µM"),
    ("Cc1ncsc1/C=C/c1n[nH]c2cc(/C=C3/C(=O)Nc4ccccc43)ccc12", "5 to 20 µM"),
    ("O=C1Nc2ccc(Cl)cc2/C1=C\\c1ccc2c(/C=C/c3ccncc3)n[nH]c2c1", "> 50 µM"),
    ("COc1ccccc1/C=C/c1n[nH]c2cc(C=C3C(=O)Nc4ccccc43)ccc12 (mixture of isomers)", "5 to 20 µM"),
    ("CN1CCN(c2ccc(-c3n[nH]c4cc(C=C5C(=O)Nc6ccc(Br)cc65)ccc34)cn2)CC1 (mixture of isomers)", "< 5 µM"),
    ("O=C1Nc2ncc(Br)cc2C1=Cc1ccc2c(/C=C/c3ccncc3)n[nH]c2c1 (mixture of isomers)", "< 5 µM"),
    ("COc1ccc2c(c1)C(=Cc1ccc3c(-c4ccc(N5CCN(C)CC5)nc4)n[nH]c3c1)C(=O)N2 (mixture of isomers)", "< 5 µM"),
]
